All figures here come from patent US20100267561A1.

test system: downy bromegrass (Bromus tectorum); assay: Test B pre-/postemergence plant response; format: in vivo; settings: Postemergence, 16 g ai/ha; scale 0 to 100
readout_type: Plant response rating, Bromegrass, Downy
Kindly provide the number alone.

Prompt: Identify the reported Plant response rating, Bromegrass, Downy for the following entry. Cc1cc(-c2ccc(Cl)cc2)nn1-c1c(OC(=O)c2cccc(Cl)c2)cnn(C)c1=O [Compound 32]
Response: 10

Prompt: Identify the reported Plant response rating, Bromegrass, Downy for the following entry. CCc1cc(-c2ccc(C(F)(F)F)cc2)nn1-c1c(OC(=O)OC(C)C)cnn(C)c1=O [Compound 12]
Response: 85

Prompt: Identify the reported Plant response rating, Bromegrass, Downy for the following entry. CCc1cc(-c2ccc(C(F)(F)F)cc2)nn1-c1c(O)c(OC)nn(C)c1=O [Compound 66]
Response: 95

* * *

tested on: woolly cupgrass (Eriochloa villosa); experiment: Test B pre-/postemergence plant response; assay type: in vivo; settings: Preemergence; 8 g ai/ha; scale 0 to 100
readout_type: Cupgrass, Woolly plant response rating
Kindly provide the number alone.

Prompt: Recall the reported Cupgrass, Woolly plant response rating of Cc1cc(-c2ccc(Cl)cc2)nn1-c1c(OC(=O)Oc2ccccc2)cnn(C)c1=O when tested on woolly cupgrass (Eriochloa villosa).
Response: 0

Prompt: Recall the reported Cupgrass, Woolly plant response rating of Cc1cc(-c2ccc(Cl)cc2)nn1-c1c(OS(=O)(=O)c2ccc(Cl)s2)cnn(C)c1=O when tested on woolly cupgrass (Eriochloa villosa).
Response: 15

Prompt: Recall the reported Cupgrass, Woolly plant response rating of Cc1cc(-c2ccc(Cl)cc2)nn1-c1c(OC(=O)c2ccccc2Cl)cnn(C)c1=O when tested on woolly cupgrass (Eriochloa villosa).
Response: 0

Prompt: Recall the reported Cupgrass, Woolly plant response rating of CCCC(=O)Oc1cnn(C)c(=O)c1-n1nc(-c2ccc(Cl)cc2)cc1C when tested on woolly cupgrass (Eriochloa villosa).
Response: 0

* * *

Give Plant response rating, Barley, Winter for every item shown.
test system: winter barley (Hordeum vulgare); experiment: Test C pre-/postemergence plant response; format: in vivo; conditions: Preemergence, 16 g ai/ha; scale 0 to 100 (0 no effect, 100 complete control)
Kindly provide the number alone.

Prompt: Recall the reported Plant response rating, Barley, Winter of Cc1nn(C)c(=O)c(-n2nc(-c3ccc(Cl)cc3)cc2C)c1O [Compound 15] when tested on winter barley (Hordeum vulgare).
Response: 20

Prompt: Recall the reported Plant response rating, Barley, Winter of CCCc1cc(-c2ccc(Cl)cc2)nn1-c1c(O)cnn(C)c1=O [Compound 43] when tested on winter barley (Hordeum vulgare).
Response: 20

Prompt: Recall the reported Plant response rating, Barley, Winter of Cc1cc(-c2ccc(Cl)cc2)nn1-c1c(OS(=O)(=O)c2cccc3ccccc23)cnn(C)c1=O [Compound 47] when tested on winter barley (Hordeum vulgare).
Response: 20

* * *

test system: pigweed (Amaranthus retroflexus); test: Test A pre-/postemergence plant response; assay type: in vivo; conditions: Preemergence, 31 g ai/ha; 0 to 100 scale, 0 is no effect, 100 is complete control
readout_type: Plant response rating, Pigweed
Kindly provide the number alone.

Prompt: Identify the reported Plant response rating, Pigweed for the following entry. Cc1cc(-c2ccc(Cl)cc2)nn1-c1c(OS(=O)(=O)c2ccc(Cl)s2)cnn(C)c1=O
Response: 0

Prompt: Identify the reported Plant response rating, Pigweed for the following entry. CCCc1cc(-c2ccc(C(F)(F)F)cc2)nn1-c1c(O)cnn(C)c1=O
Response: 0

Prompt: Identify the reported Plant response rating, Pigweed for the following entry. CCCc1cc(-c2ccc(Cl)cc2)nn1-c1c(O)cnn(C)c1=O
Response: 0
